biological target: BRD4 (Homo sapiens (Human)); assay: BRD4 DSF thermal shift (ΔTm); assay type: binding; settings: Table 2
Could you label it rule met if measured BRD4 DSF (ΔTm) is 10 °C or higher, and rule not met otherwise?

Here's what some known entries look like.
smilesData: Cc1cnc(Nc2cc(F)c(C3CCN(C)CC3)c(F)c2)nc1Nc1cnc(Cl)c(NS(=O)(=O)C(C)(C)C)c1
label: rule met
--
smilesData: Cc1cnc(Nc2ccc(OCCN3CCCC3)c(F)c2)nc1Nc1cc(NS(=O)(=O)C(C)(C)C)ncn1
label: rule not met
--
smilesData: CN1CCC(c2ccc(Nc3ncc(-c4cnn(C)c4)c(Nc4ccc(Cl)c(NS(=O)(=O)C(C)(C)C)c4)n3)cc2F)CC1
label: rule not met
--
smilesData: CN1CCC(c2ccc(Nc3ncc(C#N)c(Nc4ccc(Cl)c(NS(=O)(=O)C(C)(C)C)c4)n3)cc2F)CC1
label: rule not met
--
smilesData: Cc1cnc(Nc2ccc(C3CCN(C)CC3)c(F)c2)nc1Nc1cnc(Cl)c(NS(=O)(=O)C(C)(C)C)c1
label: rule met
--
smilesData: Cc1cnc(Nc2ccc(C3CCN(C)CC3)c(F)c2)nc1Nc1ccc2ccn(S(=O)(=O)C(C)(C)C)c2n1
label: rule not met

Prompt line: hey, is BRD4 DSF (ΔTm) for this one >= 10 °C? "Cc1cnc(Nc2ccc(N3CCN(C)CC3)c(F)c2)cc1Nc1cccc(S(=O)(=O)NC(C)(C)C)c1"
Response line: rule not met

* * *

biological target: BRD4 (Homo sapiens (Human)); assay: BRD4 DSF thermal shift (ΔTm); assay type: binding; conditions: Table 2
Answer each item with its documented BRD4 DSF (ΔTm).
Report as: number unit

Past entries and their recorded results:
smilesData: Cc1cnc(Nc2ccc(C3CCN(C)CC3)c(F)c2)nc1Nc1cccc(NS(=O)(=O)C(C)(C)C)c1
BRD4 DSF (ΔTm): 12.3 °C

smilesData: Cc1cnc(Nc2cc(F)c(C3CCN(C)CC3)cn2)nc1Nc1cccc(NS(=O)(=O)C(C)(C)C)c1
BRD4 DSF (ΔTm): 12.4 °C

smilesData: Cc1cnc(Nc2ccc(OCCN3CCCC3)c(F)c2)nc1Nc1ccc2c(c1)N(S(=O)(=O)C(C)(C)C)CC2
BRD4 DSF (ΔTm): 13.7 °C

smilesData: Cc1cnc(Nc2cc(F)ncn2)nc1Nc1ccc(Cl)c(NS(=O)(=O)C(C)(C)C)c1
BRD4 DSF (ΔTm): 1.1 °C

smilesData: Cc1cnc(Nc2cc(F)c(C3CCN(C)CC3)cn2)nc1Nc1ccc2c(c1)N(S(=O)(=O)C(C)(C)C)CC2
BRD4 DSF (ΔTm): 12.8 °C

For each of the molecules below, state BRD4 DSF (ΔTm).
1. Cc1cnc(Nc2cc(F)c(C3CCN(C)CC3)c(F)c2)nc1Nc1ccc2ccn(S(=O)(=O)C(C)(C)C)c2n1
2. Cc1cnc(Nc2ccc(C3=CCN(C)CC3)c(F)c2)nc1Nc1ccc(Cl)c(NS(=O)(=O)C(C)(C)C)c1

Response line:
1. 3.9 °C
2. 13.5 °C

* * *

biological target: JAK2 (Homo sapiens (Human)); assay: JAK2 IC50; assay type: biochemical; conditions: Table 1 comments; n = 2
Sequence (O60674 whole entry): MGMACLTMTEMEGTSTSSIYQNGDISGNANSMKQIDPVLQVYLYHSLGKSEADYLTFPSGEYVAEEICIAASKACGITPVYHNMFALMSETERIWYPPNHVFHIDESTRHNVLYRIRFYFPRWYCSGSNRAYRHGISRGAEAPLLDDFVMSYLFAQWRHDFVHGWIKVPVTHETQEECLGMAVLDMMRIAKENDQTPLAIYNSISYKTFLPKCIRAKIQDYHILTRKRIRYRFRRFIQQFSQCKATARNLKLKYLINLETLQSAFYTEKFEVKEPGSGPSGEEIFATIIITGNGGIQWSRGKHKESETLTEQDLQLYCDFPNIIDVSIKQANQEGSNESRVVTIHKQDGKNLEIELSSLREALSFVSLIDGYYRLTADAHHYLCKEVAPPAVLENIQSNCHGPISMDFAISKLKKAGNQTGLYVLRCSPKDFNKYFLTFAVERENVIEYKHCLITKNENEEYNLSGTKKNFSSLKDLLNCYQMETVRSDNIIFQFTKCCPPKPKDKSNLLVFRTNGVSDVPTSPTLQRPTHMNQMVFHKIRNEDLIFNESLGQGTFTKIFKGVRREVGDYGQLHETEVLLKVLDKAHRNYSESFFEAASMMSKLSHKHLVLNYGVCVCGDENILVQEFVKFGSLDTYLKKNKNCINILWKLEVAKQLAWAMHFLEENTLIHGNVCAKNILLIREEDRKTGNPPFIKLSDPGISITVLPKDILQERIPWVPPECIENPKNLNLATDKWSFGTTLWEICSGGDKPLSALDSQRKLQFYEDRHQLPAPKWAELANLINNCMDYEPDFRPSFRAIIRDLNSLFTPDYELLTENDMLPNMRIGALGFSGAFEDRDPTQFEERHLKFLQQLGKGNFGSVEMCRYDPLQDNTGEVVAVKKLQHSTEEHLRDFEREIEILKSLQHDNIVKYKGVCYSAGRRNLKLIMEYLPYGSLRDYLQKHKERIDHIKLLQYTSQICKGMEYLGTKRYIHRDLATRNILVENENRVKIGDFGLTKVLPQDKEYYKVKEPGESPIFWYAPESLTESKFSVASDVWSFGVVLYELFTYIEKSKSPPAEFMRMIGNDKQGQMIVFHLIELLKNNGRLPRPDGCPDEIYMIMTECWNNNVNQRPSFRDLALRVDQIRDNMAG
experimentalReadout: pIC50
Numbers only, as −log10 of the molar value.

Prompt line: Which measured pIC50 value corresponds to "Cc1cnc(Nc2ccc(N3CCNCC3)c(F)c2)nc1Nc1ccc(Cl)c(NS(=O)(=O)C(C)(C)C)c1" ?
Response line: 8.56
